These measurements were taken from PubChem BioAssay AID602292.

Tested System: Thyrotropin receptor (Homo sapiens)
Experiment Description: qHTS for antagonists of the Thyroid Stimulation Hormone Receptor: Hit Validation in Primary Screen; also: nearly all actives have a fitted effect of over 80% in size
Run Conditions: TSHR-expressing cells, cAMP antagonist mode; series mostly up to 58 µM
Text: The thyroid-stimulating hormone receptor (TSHR) is a member of the 7 trans-membrane-spanning receptor (7TMR) family of cell surface receptors. TSHR-mediated hyperthyroidism is important in thyroid pathology. […] 8. The result is obtained by using a ViewLux read-out with HTRF settings.
In all, about 1,300 compounds went through this assay and about 380 (29%) were called active. Another 37% or so got no clear call; they are omitted. Calls follow the shape of the dose curve; as a rule, active = well fitted inhibition curve with a large enough effect; inconclusive = small, poorly fitted or top-dose-only effect; inactive = flat fitted curve, though single readings scatter. The list shows a part of the results.
Classes used: active, inactive

>>> df
                                   molecule  qualitative_label
0  COc1ccc(NC(=O)Cn2nnc(C(=O)NCc3cccs3)c2N)c(OC)c1           inactive
1  CCOc1cc(N2CCOCC2)c(OCC)cc1NC(=O)c1cccc(S(=O)(=O)N2CCOCC2)c1             active
2  N#C/C(=N\Nc1cccc([N+](=O)[O-])c1)C(=O)c1ccc(Br)cc1             active
3  CC(=O)N1c2ccc(S(=O)(=O)N3CCC(C(=O)NC(C)c4ccccc4)CC3)cc2CC1C (stereo not given)           inactive
4  O=C(c1ccco1)N1N=C(C2CCCCC2)CC1(O)C(F)(F)F (stereo not given)           inactive
5  O=C1C=C(c2ccc(Cl)c(C(F)(F)F)c2)C[C@@H](c2ccc(F)cc2)C1           inactive
6             Cc1ccc(SCC(=O)NCc2ccccc2C)cc1           inactive
7  Cc1ccc(CNS(=O)(=O)c2ccc(CN3C(=O)c4cccnc4C3=O)s2)o1           inactive
8  COc1cccc(CNC(=O)CN2C(=O)CSc3ccc(S(=O)(=O)N4CCOCC4)cc32)c1           inactive
9  CCOc1cc(NC(=O)C2CC2)c(OCC)cc1NC(=O)c1cccc(F)c1           inactive

* * *

Tested System: Thyrotropin receptor (Homo sapiens) (UniProt P16473)
Sequence (P16473 whole entry, looked up): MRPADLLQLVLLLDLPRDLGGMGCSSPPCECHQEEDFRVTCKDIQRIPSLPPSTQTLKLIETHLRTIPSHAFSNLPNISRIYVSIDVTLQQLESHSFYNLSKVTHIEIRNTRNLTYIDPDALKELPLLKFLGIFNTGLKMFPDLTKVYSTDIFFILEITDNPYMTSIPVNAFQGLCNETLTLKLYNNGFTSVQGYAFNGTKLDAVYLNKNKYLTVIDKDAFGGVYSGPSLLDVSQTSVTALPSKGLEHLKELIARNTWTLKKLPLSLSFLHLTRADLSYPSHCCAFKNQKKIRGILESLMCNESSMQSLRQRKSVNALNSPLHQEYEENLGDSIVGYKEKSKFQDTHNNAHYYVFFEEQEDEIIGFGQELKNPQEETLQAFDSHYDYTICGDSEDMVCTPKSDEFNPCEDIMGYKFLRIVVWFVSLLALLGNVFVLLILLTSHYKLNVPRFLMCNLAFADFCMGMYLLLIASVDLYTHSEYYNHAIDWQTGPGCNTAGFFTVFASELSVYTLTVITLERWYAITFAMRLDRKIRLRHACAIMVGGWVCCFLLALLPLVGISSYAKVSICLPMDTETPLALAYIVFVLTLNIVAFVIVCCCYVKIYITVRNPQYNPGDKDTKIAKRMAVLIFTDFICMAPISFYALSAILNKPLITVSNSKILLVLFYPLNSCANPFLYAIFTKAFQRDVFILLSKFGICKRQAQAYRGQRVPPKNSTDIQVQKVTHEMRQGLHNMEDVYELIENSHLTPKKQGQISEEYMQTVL
Experiment Description: qHTS for antagonists of the Thyroid Stimulation Hormone Receptor: Hit Validation in Primary Screen; also: nearly all actives have a fitted effect of over 80% in size
Run Conditions: TSHR-expressing cells, cAMP antagonist mode; series mostly up to 58 µM
In all, about 1,300 compounds went through this assay and about 380 (29%) were called active. About 37% were inconclusive and are not listed. Calls come from the whole dose curve; as a rule, active = well fitted inhibition curve with a large enough effect; inconclusive = small, poorly fitted or top-dose-only effect; inactive = flat fitted curve, though single readings scatter. Some of the results follow.
Classes used: TRUE for active, FALSE for inactive

                           smiles_structure  qualitative_label
0  CCOc1ccc(N(CC(=O)NCc2ccc(F)cc2)C(=O)CCC(=O)Nc2nccs2)cc1              FALSE
1  CCCCNC(=O)c1sc(=S)n2c1[nH]c(=O)c1ccccc12               TRUE
2  CCOc1ccc(CCNC(=O)c2ccc3c(=O)[nH]c4c(C(=O)NC(C)C)sc(=S)n4c3c2)cc1               TRUE
3  O=C1NC(=O)/C(=C/c2ccccc2Oc2ccc(Cl)cc2)S1              FALSE
4  CN(Cc1ccccc1)S(=O)(=O)c1ccc(OCC(=O)NCc2ccccn2)cc1              FALSE

* * *

Tested System: Thyrotropin receptor (Homo sapiens) (UniProt P16473)
Experiment Description: qHTS for antagonists of the Thyroid Stimulation Hormone Receptor: Hit Validation in Primary Screen; also: nearly all actives have a fitted effect of over 80% in size
Run Conditions: TSHR-expressing cells, cAMP antagonist mode; series mostly up to 58 µM
Hit rate of the full screen: of about 1,300 compounds, about 380 (29%) were called active. About 37% were inconclusive and are not listed. Calls follow the shape of the dose curve; as a rule, active = well fitted inhibition curve with a large enough effect; inconclusive = small, poorly fitted or top-dose-only effect; inactive = flat fitted curve, though single readings scatter. Some of the results follow.
Classes used: TRUE = active, FALSE = inactive

>>> print(df.to_string())
                                    compound                             tested_system  qualitative_label
 0  O=C(NCc1cccc(Cl)c1)c1cc(COc2ccc3ncccc3c2)on1  Thyrotropin receptor (Homo sapiens) (UniProt P16473)               TRUE
 1  COc1ccc(CCNc2ncnc3c2[nH]c2cc(OC)c(OC)cc23)cc1OC  Thyrotropin receptor (Homo sapiens) (UniProt P16473)              FALSE
 2  CCCc1ccc(-c2c(C)sc(NC(=O)c3ccnn3C)c2C#N)cc1  Thyrotropin receptor (Homo sapiens) (UniProt P16473)               TRUE
 3  Cc1cc(OCc2cc(C(=O)NCc3csc(C(C)C)n3)no2)cc(C)c1Cl  Thyrotropin receptor (Homo sapiens) (UniProt P16473)              FALSE
 4  CS(=O)(=O)N(Cc1ccccc1)c1ccc(C(=O)N2CCN(c3cccc(Cl)c3)CC2)cc1  Thyrotropin receptor (Homo sapiens) (UniProt P16473)              FALSE
 5          O=C(NCCc1ccccc1)c1cc2ccccc2oc1=O  Thyrotropin receptor (Homo sapiens) (UniProt P16473)              FALSE
 6  CC(CNC(=O)c1cc(COc2ccc3ncccc3c2)on1)c1ccccc1 (stereo not drawn)  Thyrotropin receptor (Homo sapiens) (UniProt P16473)               TRUE
 7  CC1=NN(C(N)=S)C(=O)C1N=Nc1ccc(Cl)cc1Cl (stereo not drawn)  Thyrotropin receptor (Homo sapiens) (UniProt P16473)               TRUE
 8  CC1CN(C(=O)CCn2c(=O)oc3ccccc32)CC(C)O1 (stereo not drawn)  Thyrotropin receptor (Homo sapiens) (UniProt P16473)              FALSE
 9  CCOc1ccccc1NC(=O)CSc1nc2ccccc2c(=O)n1CC1CCCO1 (stereo not drawn)  Thyrotropin receptor (Homo sapiens) (UniProt P16473)              FALSE
10  Cc1cc(C(=O)NC2CCCc3c2cnn3-c2ccc(C(C)(C)C)cc2)nn1C (stereo not drawn)  Thyrotropin receptor (Homo sapiens) (UniProt P16473)               TRUE
11   O=C(CCc1ccccc1)N1CCN(Cc2ccc(F)cc2Cl)CC1  Thyrotropin receptor (Homo sapiens) (UniProt P16473)              FALSE
12       O=C(CCC(=O)Nc1ccccc1)N/N=C/c1ccncc1  Thyrotropin receptor (Homo sapiens) (UniProt P16473)              FALSE
13          Clc1c(CSc2nc3ccccc3o2)nc2ccccn12  Thyrotropin receptor (Homo sapiens) (UniProt P16473)               TRUE
14  CC1CCCC(NC(=O)CN2C(=O)COc3ccccc32)C1C (stereo not drawn)  Thyrotropin receptor (Homo sapiens) (UniProt P16473)              FALSE
15  N#CC1=C(N)NC(SCc2ccc(Br)cc2)=C(C#N)C12CCCCC2  Thyrotropin receptor (Homo sapiens) (UniProt P16473)               TRUE
16  CC(=O)N(C)c1ccc(N=NC2C(=O)N(C(N)=S)N=C2C)cc1 (stereo not drawn)  Thyrotropin receptor (Homo sapiens) (UniProt P16473)              FALSE
17  CCn1c(=S)sc2c(=O)n(CC(=O)Nc3ccccc3OC)c(C)nc21  Thyrotropin receptor (Homo sapiens) (UniProt P16473)              FALSE
18  Cc1cc(/C=C2\Sc3ccccc3N2C)cc(C)[n+]1CC1CCCO1 (stereo not drawn)  Thyrotropin receptor (Homo sapiens) (UniProt P16473)               TRUE
19  O=C(Nc1ccc(N2CCN(C(=O)c3ccccc3)CC2)cc1)c1cc2ccccc2o1  Thyrotropin receptor (Homo sapiens) (UniProt P16473)               TRUE
20          O=C(Nc1ccc(Cl)c(Cl)c1)Nc1ccccc1O  Thyrotropin receptor (Homo sapiens) (UniProt P16473)               TRUE
21  CCSC1=NSC2=NC(=O)/C(=C\c3coc4ccccc4c3=O)C(=N)N12  Thyrotropin receptor (Homo sapiens) (UniProt P16473)               TRUE
22     N#Cc1c(SCc2c(Cl)cccc2Cl)nc(N)[nH]c1=S  Thyrotropin receptor (Homo sapiens) (UniProt P16473)               TRUE

* * *

Tested System: Thyrotropin receptor (Homo sapiens)
Experiment Description: qHTS for antagonists of the Thyroid Stimulation Hormone Receptor: Hit Validation in Primary Screen; also: nearly all actives have a fitted effect of over 80% in size
Run Conditions: TSHR-expressing cells, cAMP antagonist mode; series mostly up to 58 µM
Out of some 1,300 compounds screened, about 380 (29%) were called active. About 37% were inconclusive and are not listed. The call rests on the fitted dose curve; in most records, active means well fitted inhibition curve with a large enough effect; inconclusive means small, poorly fitted or top-dose-only effect; inactive means flat fitted curve, though single readings scatter. The list shows a part of the results.
Classes used: active, inactive

                                   compound  qualitative_label
0  CCn1nc([N+](=O)[O-])c(C(C#N)c2nc3cc(C(F)(F)F)ccc3s2)c(Cl)c1=O (stereo not given)             active
1        O=C(COCc1cc(-c2cccs2)on1)NC1CCCCC1           inactive
2  O=S(=O)(Nc1ccc2cn[nH]c2c1)c1cc(Br)ccc1Br             active
3    C=CCOc1c(Cl)cc(CNc2ccc(N(C)C)cc2)cc1OC           inactive
4  CSCCCNC(=O)c1ccc(OC2CCN(C(=O)c3cccnc3)CC2)cc1           inactive
5  O=C(Nc1ccncc1)C1CCN(S(=O)(=O)c2cccc(C(F)(F)F)c2)CC1           inactive
6  O=C(Nc1nc(-c2cccs2)c(-c2cccs2)s1)C1CCCC1             active
7  CCN1C(=NCc2ccc(OC)cc2)N[C@@H](CCc2ccccc2)[C@H](C(=O)NCc2ccc(OC)cc2)[C@H]1C           inactive
8  CC1CC1C(=O)N1CCN(S(=O)(=O)c2cc(C(F)(F)F)cc(C(F)(F)F)c2)CC1 (stereo not given)             active
9  O=C(Nc1ccc(C(F)(F)F)cc1)c1csc(-c2ccncc2)n1             active
